Entry source: the supplement of paper PMC10941209

# System: Toxoplasma gondii RH 2F1 tachyzoites (intracellular in HFF)
# PROCEDURE DETAILS: parasite survival relative to DMSO control; higher = less antiparasitic activity, active = 20 or less
# PARTICULARS: 1 µM; 72 h
MEASUREMENT LABEL: parasite survival (%)
Numbers only, in %.

Some molecules with known parasite survival results, for comparison:
Cc1c[nH]c(=O)nc1NCc1ccccc1 :: 49.9
CONC(=N)c1ccc(-c2ccc(-c3ccc(C(=N)NOC)cc3)o2)cc1 :: 49.7
Nc1nc(C(F)(F)F)cc2c1[nH]c(=O)n2Cc1ccccc1 :: 49.1

Query: parasite survival; subject: Cc1onc(-c2ccccc2Cl)c1C(=O)N[C@@H]1C(=O)N2[C@@H]1SC(C)(C)[C@@H]2C(=O)O 50.5

###

# Tested on: Toxoplasma gondii RH 2F1 tachyzoites (intracellular in HFF)
# PROCEDURE DETAILS: parasite survival relative to DMSO control; higher = less antiparasitic activity, active = 20 or less
# PARTICULARS: 1 µM; 72 h
# output must be one of class 1 = active, class 0 = inactive

Answered examples (5):
C[C@@]1(O)[C@H](O)[C@@H](CO)O[C@H]1n1ccc2c(N)ncnc21 :: class 0
O=C(NCc1ccc2c3c(cccc13)C(=O)N2)c1cccs1 :: class 0
N#C/C(=C1/SC[C@H](c2ccc(Cl)cc2Cl)S1)n1ccnc1 :: class 0
O=C(O)COc1cccc2c1CC[C@](O)(COC(=O)N(c1ccccc1)c1ccccc1)C2 :: class 0
C[N+]1(C)CCCC(OC(=O)C(O)(c2ccccc2)c2ccccc2)C1 (stereo not given) :: class 0

Hi team, can someone confirm the assay call for Nc1nc(O)c(Br)c(-c2cccc(Cl)c2)n1 ? class 0

Hi team, can someone confirm the assay call for COc1cc(NC(=O)CN2C(=O)NC(c3ccccc3)(c3ccccc3)C2=O)cc(OC)c1 ? class 0

Hi team, can someone confirm the assay call for CC(C)(C)c1ccc(OCCn2nc(C(=O)O)c3ccccc3c2=O)cc1 ? class 0

Hi team, can someone confirm the assay call for NC(=O)[C@@H]1CC[C@@H]2CN1C(=O)N2OS(=O)(=O)O ? class 0

Hi team, can someone confirm the assay call for CCOC(=O)Nc1cc(NC(C)CC(C)CN(CC)CC)c2nc(-c3ccccc3)c(-c3ccccc3)nc2n1 (stereo not given) ? class 1

Hi team, can someone confirm the assay call for CNc1nc(=O)[nH]cc1F ? class 0

Hi team, can someone confirm the assay call for N=C(N)c1ccc(COc2ccc(Cl)cc2)cc1 ? class 0

###

# System: Toxoplasma gondii RH 2F1 tachyzoites (intracellular in HFF)
# PROCEDURE DETAILS: parasite survival relative to DMSO control; higher = less antiparasitic activity, active = 20 or less
# PARTICULARS: 1 µM; 72 h
# parasite survival >= 40% gives true (1), anything below gives false (0)

Nc1cnn(C2OC(CO)C(O)C2O)c(=O)n1 (stereo unspecified) :: true (1)
CN(C)CC(=O)Nc1ccc2[nH]c(=O)c3ccccc3c2c1 :: true (1)
CCc1ccc(C2CC(C(F)(F)F)n3ncc(C(=O)NCc4ccc(OC)cc4)c3N2)cc1 (stereo unspecified) :: false (0)
COc1ccccc1NC(=O)c1ccccc1Sc1ccc([N+](=O)[O-])cc1 :: true (1)

Note: attention shifts to another entry.
Decide: is the reported value of parasite survival for C(=C\c1nc2ccccc2[nH]1)/c1ccc2c(c1)OCO2 equal to or greater than 40%? false (0)
